Where these numbers come from: ChEMBL document CHEMBL3988442

Tested on: Trypanosoma brucei
Assay notes: Trypanosoma brucei 72 hour study
Assay type: functional, organism-based
Parameters: scale not given: in the data most compounds retested in dose-response had high values
Run parameters: 30.3 µM; […]
Hit rate of the full screen: of about 66,000 compounds, about 960 (1.5%) showed an effect of 50% or more. What follows is part of a selection rich in strong results, with near analogues and random picks from the rest.
Categories are assigned from the measured Percent Effect using these intervals: A = under -10%, B = from -10% up to 30%, C = 30% and over

For the record CCCNC(=O)c1cc2c(c3ccccc3n2C)n1C(=O)N(C)C , report the class its Percent Effect corresponds to. B

For the record CC(C)Oc1ccc(C(=O)NCc2ccc3c(c2)CCCN3C)cn1 , report the class its Percent Effect corresponds to. B

For the record CCCc1nc(NCCOC)c2c(n1)c(C)nn2CC , report the class its Percent Effect corresponds to. A

For the record CN(C)C(=O)c1n[nH]c2c1CN(CC1CCCCC1)C2.O=C(O)C(F)(F)F.O=C(O)C(F)(F)F , report the class its Percent Effect corresponds to. A

For the record CN(C)CCNC(=O)C1Cc2nc(-c3ccccc3)sc2N1CC1CC1.O=C(O)C(F)(F)F (stereo unspecified) , report the class its Percent Effect corresponds to. B

For the record CC(C)N1CCC2(CCNCC2)C1=O.Cl , report the class its Percent Effect corresponds to. A

For the record CN(Cc1ccc2c(c1)OCCO2)Cc1nc2c(cnn2C)c(=O)[nH]1 , report the class its Percent Effect corresponds to. B

For the record O=S(=O)(c1ccccc1)N1CCC2(CCCN2Cc2ccc(Cl)cc2)C1 (stereo unspecified) , report the class its Percent Effect corresponds to. C

For the record Cn1cc(CN2CCOC3(CCCN(c4cccc(F)c4)C3)C2)cn1.O=C(O)C(F)(F)F.O=C(O)C(F)(F)F (stereo unspecified) , report the class its Percent Effect corresponds to. A

For the record O=S(=O)(c1ccccc1)N1CCC2(CCCN2Cc2ccccc2Cl)C1 (stereo unspecified) , report the class its Percent Effect corresponds to. C

For the record CN(C)C1CCC2(CCN(Cc3nccn3C)CC2)c2ccccc21.O=C(O)C(F)(F)F.O=C(O)C(F)(F)F (stereo unspecified) , report the class its Percent Effect corresponds to. A

For the record CN1CCCC(c2cncc(-c3cccc(C(F)(F)F)c3)n2)C1 (stereo unspecified) , report the class its Percent Effect corresponds to. C

For the record CNC(=O)CN1CC[C@H]2CN(C(=O)c3cccn3C)C[C@H]2C1.O=C(O)C(F)(F)F , report the class its Percent Effect corresponds to. A

For the record CC1CCCCN1C(=O)c1n[nH]c(=O)c2ccccc12 (stereo unspecified) , report the class its Percent Effect corresponds to. B

For the record Cc1cc(-c2cnc(NCc3ccccn3)nc2C(C)C)on1 , report the class its Percent Effect corresponds to. C

For the record CC(C)c1cc(C(=O)NCCCN(C)C)nc(N2CCCC2)n1 , report the class its Percent Effect corresponds to. C

For the record Cc1cnn(CC2CCCCN2Cc2nc(C)c3ccccc3n2)c1 (stereo unspecified) , report the class its Percent Effect corresponds to. B

For the record Cn1nc(COCC2CC2)c2c1CN(CC1CC1)CC2.O=C(O)C(F)(F)F.O=C(O)C(F)(F)F , report the class its Percent Effect corresponds to. A

For the record CCCc1nc(NCCCOCC)c2c(n1)c(C)nn2CC , report the class its Percent Effect corresponds to. A

For the record O=C(CC1CCCC1)N1CCC2(CCN2Cc2ccc(F)cc2)C1.O=C(O)C(F)(F)F (stereo unspecified) , report the class its Percent Effect corresponds to. B

For the record CC(C)CS(=O)(=O)N1C[C@H]2C[C@H](C(=O)N3CCN(C)CC3)[C@@H](C1)O2.O=C(O)C(F)(F)F , report the class its Percent Effect corresponds to. A

For the record Cc1cc(C)c(CNC(=O)NCc2ccc(F)c(C)c2)c(=O)[nH]1 , report the class its Percent Effect corresponds to. A

For the record Cc1cnn(CC2CCCN2Cc2nc(C)c3ccccc3n2)c1 (stereo unspecified) , report the class its Percent Effect corresponds to. C

For the record Cc1nc2c(c(NCc3cc4ccccc4s3)n1)CCNCC2 , report the class its Percent Effect corresponds to. C

For the record O=C(O)C(F)(F)F.O=C([C@H]1CCCO1)N1CCOC2(CCCN(c3ncccc3F)C2)C1 (stereo partly specified) , report the class its Percent Effect corresponds to. B

For the record Cc1nc2c(c(NCc3ccc(-c4ccccn4)s3)n1)CCNCC2 , report the class its Percent Effect corresponds to. C

For the record O=C(O)C(F)(F)F.O=C(O)C(F)(F)F.O=S(=O)(c1ccccc1)N1CCC2(CCCN2Cc2cccnc2)C1 (stereo unspecified) , report the class its Percent Effect corresponds to. A

For the record O=C(Cc1ccccc1F)N1CCCCC1c1ccn2ccnc2n1 (stereo unspecified) , report the class its Percent Effect corresponds to. A

For the record Cc1cc(-c2cnc(NCc3ccncc3)nc2C(C)C)on1 , report the class its Percent Effect corresponds to. B

For the record Cc1nc2c(c(NCC3Cc4ccccc4CN3C)n1)CCNCC2 (stereo unspecified) , report the class its Percent Effect corresponds to. B

For the record CCn1ncc2c1C(COC)N(C(=O)CCc1ccccc1)CC2.O=C(O)C(F)(F)F (stereo unspecified) , report the class its Percent Effect corresponds to. A

For the record CCCN(C(=O)c1cnccn1)c1nc2c(s1)CCc1c-2cnn1C , report the class its Percent Effect corresponds to. C

For the record CCc1nc2ccccc2c(=O)n1CC1(O)CCN(C(=O)C2CC2)CC1.Cl , report the class its Percent Effect corresponds to. B

For the record CS(=O)(=O)NCC1CCCN(C(=O)c2ccc(F)c(F)c2)C1 (stereo unspecified) , report the class its Percent Effect corresponds to. A

For the record O=C(O)C(F)(F)F.O=C(O)C(F)(F)F.O=C(c1ccnnc1)N1CCN(Cc2ccncc2)c2ncccc2C1 , report the class its Percent Effect corresponds to. B

For the record COC(=O)c1cccc(C(=O)NCc2ccc3c(c2)CCCN3C)c1 , report the class its Percent Effect corresponds to. B

For the record Fc1cccc(N2CCCC3(CN(Cc4ccco4)CCO3)C2)c1.O=C(O)C(F)(F)F.O=C(O)C(F)(F)F (stereo unspecified) , report the class its Percent Effect corresponds to. C

For the record CN1CCCc2cc(CNC(=O)c3ccc(-n4cnnc4)cc3)ccc21 , report the class its Percent Effect corresponds to. C

For the record CCCN(C(=O)c1cccnc1)c1nc2c(s1)CCc1c-2cnn1C , report the class its Percent Effect corresponds to. C

For the record Cc1cc(-c2cnc(NCc3ccc4c(c3)OCO4)nc2C(C)C)on1 , report the class its Percent Effect corresponds to. C

For the record CN(Cc1cccnc1)[C@@H]1CN(C(=O)c2ccoc2)[C@@H]2CCCO[C@H]12.O=C(O)C(F)(F)F.O=C(O)C(F)(F)F , report the class its Percent Effect corresponds to. B

====

Tested on: Trypanosoma brucei
Assay notes: Trypanosoma brucei 72 hour study
Assay type: functional, organism-based
Parameters: scale not given: in the data most compounds retested in dose-response had high values
Run parameters: 30 µM; 30.03 µM
Out of some 66,000 compounds screened, about 960 (1.5%) showed an effect of 50% or more. This is one part of a sample in which strong results are shown more often than they occur.
Assignment: determine reported Percent Effect for the given compounds.
Please respond with the number in % and leave the unit unwritten.

# query: Percent Effect | item COc1ccc(-c2c[nH]c([C@@H]3COCCN3)n2)cc1 | system: Trypanosoma brucei -38.08

# query: Percent Effect | item CN(C)Cc1nnn2c1CN(Cc1cccnc1)CCC2.O=C(O)C(F)(F)F.O=C(O)C(F)(F)F.O=C(O)C(F)(F)F | system: Trypanosoma brucei -10.93

# query: Percent Effect | item O=C(c1ccncc1)N1C[C@@H]2CC[C@H](C1)N(S(=O)(=O)c1cccnc1)C2 | system: Trypanosoma brucei -9.354

# query: Percent Effect | item COCCC1(CO)CCCN(CCCc2ccccc2)C1 (stereo not given) | system: Trypanosoma brucei -35.64

# query: Percent Effect | item FC(F)(F)c1ccc(-c2c[nH]c([C@@H]3COCCN3)n2)cc1 | system: Trypanosoma brucei 11.07

# query: Percent Effect | item N[C@H]1CC[C@@H](n2cc(C(=O)N[C@H]3CCCc4ccccc43)nn2)CC1 | system: Trypanosoma brucei -48.79

# query: Percent Effect | item OCc1csc(N2CCCC(COc3cccc(F)c3)C2)n1 (stereo not given) | system: Trypanosoma brucei -13.56

# query: Percent Effect | item CC(C)Oc1cc(N2C[C@H](C3CC3)[C@@H](N)C2)nc(N)n1 | system: Trypanosoma brucei 88.99

# query: Percent Effect | item Cn1cccc1C(=O)N1C[C@@H]2C[C@@H](c3nc(C4CC4)cs3)O[C@@H]2C1.O=C(O)C(F)(F)F | system: Trypanosoma brucei -16.96

# query: Percent Effect | item CCCNC(c1ccc(F)cc1)c1cccnc1.Cl.Cl (stereo not given) | system: Trypanosoma brucei -17.83

# query: Percent Effect | item Cc1n[nH]c2ncc(CNC3CCCN(c4ncccn4)C3)cc12.Cl (stereo not given) | system: Trypanosoma brucei 72.79

# query: Percent Effect | item Cc1cccnc1NC(=O)C(C)Cn1nc(C(F)(F)F)cc1C (stereo not given) | system: Trypanosoma brucei 53.66

# query: Percent Effect | item CN(Cc1cscn1)C1CCCN(Cc2noc(C3CC3)n2)C1 (stereo not given) | system: Trypanosoma brucei -28.03

# query: Percent Effect | item Cc1nc(C)n(CC2CN(CC(=O)Nc3ccncc3)CCO2)n1 (stereo not given) | system: Trypanosoma brucei -4.979

# query: Percent Effect | item CN(Cc1ccncc1)Cc1cnn(-c2ccc(F)cc2)c1 | system: Trypanosoma brucei -38.94

# query: Percent Effect | item Cc1cc(S(=O)(=O)NC(C)(C)CN)c(F)cc1F.Cl | system: Trypanosoma brucei -23.52

# query: Percent Effect | item CN(CCNC(=O)c1cnc(-c2ccccc2)nc1)S(C)(=O)=O | system: Trypanosoma brucei 23.88

# query: Percent Effect | item Cc1ccc(NC(C)(C)c2nnnn2-c2ccc(Cl)cc2)c(C)c1 | system: Trypanosoma brucei -23.29

# query: Percent Effect | item CC(C)Oc1cc(N2CC[C@H](CO)[C@@H](O)C2)nc(N)n1 | system: Trypanosoma brucei -21.24

# query: Percent Effect | item CCc1ncc(C(=O)NCCN(C)S(C)(=O)=O)cn1 | system: Trypanosoma brucei 1.892

# query: Percent Effect | item CNc1cc(C)nc(N2C[C@H](NC(=O)C3CCOCC3)[C@@H](C3CC3)C2)n1 | system: Trypanosoma brucei -23.63

# query: Percent Effect | item COc1ccc(C2=Nn3c(CN)nnc3-c3ccccc3C2)cc1 | system: Trypanosoma brucei 2.28

# query: Percent Effect | item COCCCC1(CO)CCCN(CCc2ccccc2)C1 (stereo not given) | system: Trypanosoma brucei 60.85

# query: Percent Effect | item Cc1ccc(CN2CCn3cc(CNC(=O)c4cnn(C)c4)nc3C2)s1.O=C(O)C(F)(F)F | system: Trypanosoma brucei -34.09

# query: Percent Effect | item Cc1nn2c(-c3snnc3C)nnc2s1 | system: Trypanosoma brucei -55.36

# query: Percent Effect | item Cn1cc(CNC(=O)NCCOc2ccc(F)c(F)c2)cn1 | system: Trypanosoma brucei -10

# query: Percent Effect | item CCO[C@H]1CO[C@@]2(CCCN(S(=O)(=O)c3cccnc3)C2)C1.O=C(O)C(F)(F)F | system: Trypanosoma brucei 23.98

# query: Percent Effect | item O=S1(=O)CCC(S(=O)(=O)c2cccc(S(=O)(=O)N3CCOCC3)c2)C1 (stereo not given) | system: Trypanosoma brucei -4.748

# query: Percent Effect | item Cc1cc(C)c(C#N)c(N2CCC3(CCCN(CCO)C3=O)C2)n1 (stereo not given) | system: Trypanosoma brucei -17.57

# query: Percent Effect | item CCc1ccc2nc(C)cc(C(=O)N[C@@H]3CCCNC3)c2c1 | system: Trypanosoma brucei 86.43

# query: Percent Effect | item O=C(Cc1ccccc1Cl)Nc1cc(N2CCCC2)ncn1 | system: Trypanosoma brucei -11.61

# query: Percent Effect | item O=C(CSc1ccc2c(c1)OCCO2)NS(=O)(=O)c1ccccc1F | system: Trypanosoma brucei -24.23

# query: Percent Effect | item Cc1nc(CN(C)C2CCN(Cc3nc4ccccc4s3)C2)no1 (stereo not given) | system: Trypanosoma brucei 13.35

# query: Percent Effect | item CCc1ccc2nc(C)cc(C(=O)NC[C@@H]3CCNC[C@H]3O)c2c1 | system: Trypanosoma brucei -34.49

# query: Percent Effect | item O=C(CSc1ccc(F)c(F)c1)NS(=O)(=O)c1ccc2c(c1)OCCO2 | system: Trypanosoma brucei -8.026

# query: Percent Effect | item CCc1nnc(SC2CCCN(c3cccc(F)c3)C2=O)n1C (stereo not given) | system: Trypanosoma brucei -37.32

# query: Percent Effect | item CCN(CC)CCn1c(=O)oc2ccccc21.Cl | system: Trypanosoma brucei -24.39

# query: Percent Effect | item Cn1nc(N2CCCC(C(=O)Nc3nc4ccccc4s3)C2)ccc1=O (stereo not given) | system: Trypanosoma brucei -10.15

# query: Percent Effect | item Cn1nc(-c2ccc(Cl)cc2)c(Br)c1C(=O)O | system: Trypanosoma brucei -21.18

# query: Percent Effect | item O=C(CSc1ccc2c(c1)OCCO2)NS(=O)(=O)c1cc(F)ccc1F | system: Trypanosoma brucei 61.54

# query: Percent Effect | item CC(C)CN1Cc2nc(N3CCCC(C)C3)ncc2C1=O (stereo not given) | system: Trypanosoma brucei -5.722

# query: Percent Effect | item Cc1ccc(-c2nnc(CN3CC(n4cc(C)cn4)C3)o2)cc1 | system: Trypanosoma brucei -4.601

# query: Percent Effect | item CCn1nc(C)c2nc(C)nc(NC3CCCC3)c21 | system: Trypanosoma brucei -3.661

# query: Percent Effect | item O=C(O)C(F)(F)F.O=C1COC2(CCN(CC3CC3)CC2)CN1c1cncnc1 | system: Trypanosoma brucei -12.06

# query: Percent Effect | item CCc1cc(N2C[C@H](C3CC3)[C@@H](N)C2)nc(N2CCOCC2)n1 | system: Trypanosoma brucei -22.85
